Below, each entry is listed alongside its reported solubility.
Experiment: physchem
Conditions: pH 6
experimental-readout: solubility

1) H-SMWKGELYRQNRFASSKESAKLYGS-OH : < 2000 µg/mL
2) H-TSRRLTGLLDHEVQAGRQ-OH : > 2000 µg/mL
3) H-TSGSSTALPGSNPSTMDSGSGD-OH : < 2000 µg/mL
4) H-VDKNGRRRLVYLVENPGG-OH : > 2000 µg/mL
5) H-AQRKLYQDVMHENFTNLLSVGHQP-OH : > 2000 µg/mL
6) H-RLVLGKFGDLTNNFSSPHAR-OH : > 2000 µg/mL
7) H-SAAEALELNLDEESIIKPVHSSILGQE-OH : > 2000 µg/mL
8) H-FYSNSTVSETQWKVTVTPR-OH : > 2000 µg/mL
9) H-TISLLLIFYNTKEIARTEEHQE-OH : < 2000 µg/mL
10) H-NHSAKFLKELTLAMDELEENFRG-OH : < 2000 µg/mL
11) H-LSPREEFLRLCKKIMMRSIQ-OH : > 2000 µg/mL
12) H-AIYHKYYHYLYSYYLPASLKNMVD-OH : < 2000 µg/mL
13) H-AVGATKVPRNQDWLGVSRQL-OH : > 2000 µg/mL
14) H-IGALNPKRAAFFAEHYESWE-OH : < 2000 µg/mL
15) H-SSELTAVNFPSFHVTSLKLMVSPTS-OH : > 2000 µg/mL
16) H-KQGWTTEGIWKDVYIIKL-OH : < 2000 µg/mL
17) H-PLMQTELHQLVPEADPEEMA-OH : > 2000 µg/mL
18) H-STEVEPKESPHLARHRHLMKTLVKSLST-OH : > 2000 µg/mL
19) H-EQGPWQSEGQTWRAAGGRVPVPCPAAGPG-OH : > 2000 µg/mL
20) H-AAVRPEQRPAARGSRV-OH : > 2000 µg/mL
21) H-LMSNLAFADFCMRMYL-OH : < 2000 µg/mL
22) H-GTEPEPAFQDDAVNAPLEFKMAAGSSG-OH : > 2000 µg/mL
23) H-SAVSAASIPAEHINQATNGGGS-OH : > 2000 µg/mL
24) H-SSPLGRANGRRFANPRDSFSAMGFQR-OH : > 2000 µg/mL
25) H-KQYLDHSGNLMSMHNIKIFMFQLLRG-OH : < 2000 µg/mL
26) H-SRLQTRKNKKLALSSTPSNIAPSD-OH : > 2000 µg/mL
27) H-MPPPGALMGLALKKKSIPQPTN-OH : > 2000 µg/mL
28) H-NNSKKKWFLFQDSKKIQVEQPQ-OH : > 2000 µg/mL
29) H-VKQLERGEASVVDFKKNLEYAAT-OH : > 2000 µg/mL
30) H-KKNITNLSRLVVRPDTDAVY-OH : > 2000 µg/mL
31) H-RRGGALFASRPRFTPL-OH : > 2000 µg/mL

###

Test: Short-term room temperature stability of Pool 3 mixed with Hiltonol (RP-HPLC)
Type: physicochemical
Conditions: Pool 3 + Hiltonol, 4 Hours RT
experimental-readout: Total Peak

1. H-VAGLAASGLHGSAWLVPGEQPVSGPHHGKQ-OH [CS6931] : 8789.07
2. H-AESAQRQGPNGGGEQSANEF-OH [CS7416] : 5818.67
3. H-SKRGVGAKTLLLPDPFLFWPCLEGTRRSL-OH [CS6934] : 6026.68
4. H-KLAWRGRISSSGCPSMTSPPSPMFGMTLHT-OH [CS6919] : 8730.96
5. H-AHRQGEKQHLLPVFSRLALRLPWRHSVQL-OH [CS6941] : 6676.54

###

Below, each entry is listed alongside its reported solubility.
Test: physchem
Settings: pH 6
experimental-readout: solubility

1) H-HKSIGQPKLSTHPFLCPKPQKMNTSLGQHLTL-OH : > 2000 µg/mL
2) H-SERYIGTEGGGMDQSILFLAEEGTAK-OH : < 2000 µg/mL
3) H-FKMDRQGVTQVLSCLSYISALGMMT-OH : < 2000 µg/mL
4) H-LENNANHDETSFLLPRKESNIVD-OH : > 2000 µg/mL
5) H-TWAGHVSTALARPLGAPWAEPGSCGPGTN-OH : > 2000 µg/mL
6) H-DRSVLAKKLKFVTLVFRHGDRSPID-OH : > 2000 µg/mL
7) H-LKEMNEKVSFIKNSLLSLDSQVGHLQD-OH : < 2000 µg/mL
8) H-EDSDKLFESKAELADHQKF-OH : > 2000 µg/mL
9) H-IAMGFPQKDLKAYTGTIL-OH : > 2000 µg/mL
10) H-TKDRDLLVVAHDLIWKMSPRTGDAKPS-OH : > 2000 µg/mL
11) H-DVTGPHLYSIYLHGSTDKLPYVTMGS-OH : > 2000 µg/mL
12) H-KLRTIPLSDNTIFRRICTIAKHLE-OH : > 2000 µg/mL
13) H-PRVDLQGAELWKRLHEIGTEMIITK-OH : > 2000 µg/mL
14) H-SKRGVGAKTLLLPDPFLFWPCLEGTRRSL-OH : > 2000 µg/mL
15) H-VARNYLREAVSHNASLEVAILRD-OH : < 2000 µg/mL
16) H-LPDEVSGLEQLESIINFEKLTEWTSSNVME-OH : > 2000 µg/mL
17) H-VSGLEQLESIINFEKL-OH : > 2000 µg/mL
18) H-STQHADLTIIDNIKEMNFLRRYK-OH : > 2000 µg/mL
19) H-DASDFLPDTQLFPHFTELLLPLDPLEGSSV-OH : > 2000 µg/mL
20) H-SLRNNMFEISDRFIGIYKTYNITK-OH : > 2000 µg/mL
21) H-STLPVISDSTTKRRWSALVIGL-OH : > 2000 µg/mL
22) H-SGARIGAPPPHATATSSSSFMPGTWGREDL-OH : > 2000 µg/mL
23) H-FPVVQSTEDVFPQGLPNEYAFVT-OH : > 2000 µg/mL
24) H-TGKPEMDFVRLAQLFARARPMGLF-OH : > 2000 µg/mL
25) H-SDAFSGLTALPQSILLFGP-OH : > 2000 µg/mL
26) H-EIHGKCENMTITSRGTTVTPTKETVSLG-OH : > 2000 µg/mL
27) H-DDSLHIQATYISGPVLAGSGD-OH : > 2000 µg/mL
28) H-AAAFPSQRTSWEFLQSLVSIKQEKPA-OH : < 2000 µg/mL

###

Assay: Short-term room temperature stability of Pool 3 mixed with Hiltonol (RP-HPLC)
Format: physicochemical
Conditions: Pool 3 + Hiltonol, 6 Hours RT
Below, each entry is listed alongside its reported % Purity.
experimental-readout: % Purity (%)

1) H-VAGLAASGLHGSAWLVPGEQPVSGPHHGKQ-OH [CS6931] : 96.79
2) H-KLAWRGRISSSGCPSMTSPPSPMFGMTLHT-OH [CS6919] : 81.86
3) H-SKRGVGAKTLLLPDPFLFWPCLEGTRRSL-OH [CS6934] : 96.59
4) H-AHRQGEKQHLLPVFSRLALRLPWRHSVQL-OH [CS6941] : 100
5) H-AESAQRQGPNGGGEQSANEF-OH [CS7416] : 97.9

###

Experiment: physchem
Conditions: pH 6
experimental-readout: solubility

1) H-LPVFIGNIAVNHAPVSLRPGLGLPPGAPPGTVP-OH : > 2000 µg/mL
2) H-LLTDRNTSGTTFTLLGVSDYPELQVPLFLVFLA-OH : > 2000 µg/mL
3) H-SEIDFPMARSKLLKKKLPSKDL-OH : > 2000 µg/mL
4) H-LMGRLQHTFKQKMTGVGASLEKR-OH : > 2000 µg/mL
5) H-SHLASLKNNVSPVLRSHSFSDPSPKFA-OH : > 2000 µg/mL
6) H-KHLPGVNFPGNQWNPVEGILPS-OH : > 2000 µg/mL
7) H-WTPAAPTAMAEVGPGHTPAHPSQGAVPP-OH : > 2000 µg/mL
8) H-TTTSVKKEELVLSEEDFQGITPGAQ-OH : < 2000 µg/mL
9) H-GAVGATKVPRNQDWL-OH : > 2000 µg/mL
10) H-DNHLRRNRLIVVDLFHGQL-OH : > 2000 µg/mL
11) H-LPDEVSGLEQLESIINFEKL-OH : > 2000 µg/mL
12) H-AIISSLFVSYFLYR-OH : < 2000 µg/mL
13) H-VSWGKKVQPIDSILADWNEDIEAFEMMEKD-OH : > 2000 µg/mL
